system: DU-145 prostate; experiment: NCI-60 one-dose screen, 48 h (100 = growth as untreated, 0 = no growth, -100 = all killed); details: 10 µM unless noted
Compounds without any hit were thinned out: in the full panel of roughly 83,000, 20% have a hit.
Consider the following partition of reported growth into named classes: low = under 20%, middle = from 20% up to 70%, high = 70% and over

Examples from the recorded data:
{"molecule": "Cn1cc(-c2nc(N)nnc2-c2c[nH]c3ccc(Br)cc23)c2cc(Br)ccc21", "assigned_class": "middle"}
{"molecule": "Cc1ccc(-c2cc3nc(C(Cl)Cl)nc(-c4cccs4)n3n2)cc1", "assigned_class": "low"}
{"molecule": "CC(=O)O[C@@H]1C(=O)N(c2cnccn2)[C@H]1c1ccccc1[N+](=O)[O-]", "assigned_class": "low"}
{"molecule": "NC(N)=Nc1ccc(Nc2cccc(Nc3ccc(Cl)c(C(F)(F)F)c3)c2)cn1", "assigned_class": "middle"}

[in] Into which category would you place CCCn1cnc2c(c1=N)C(c1ccc(F)cc1)c1sc3c(CC)cccc3c1O2 (centres undefined) ?
[out] low

[in] Input O=C(Cn1cc(-c2ccccc2)nn1)Nc1nc(-c2ccc(Cl)cc2)cs1
[out] high

[in] Would you mind doing Cc1cccc(/C=C/C(=O)Nc2ncc(Cc3cccc(C)c3)s2)c1 as well?
[out] low

[in] Then what about the molecule CCNC(=O)N1CCc2cc(OC)c(OCCc3ccc(OC)c(N)c3)cc2C1c1ccc(C)cc1C (centres undefined) ?
[out] low

[in] Then COc1cc(Cn2cc3c(c2)-c2onc(CN4CCOCC4)c2CC3)cc(OC)c1OC ?
[out] high

[in] Try this molecule too: Oc1cccc2ccc(-c3nnc(SCc4ccc(O)c5ncccc45)o3)nc12
[out] middle

[in] Next molecule up: O=C(Nc1nc2ccc([N+](=O)[O-])cc2s1)Nc1ccccc1Br
[out] middle

###

tested on: CCRF-CEM leukemia; experiment: NCI-60 one-dose screen, 48 h (100 = growth as untreated, 0 = no growth, -100 = all killed); conditions: 10 µM unless noted
This is part of a sample that, as a whole, favours compounds with a hit. Of some 83,000 tested, about 20% had one in any assay.
Assign Fulfilled to entries whose growth meets or exceeds 70%; assign Not fulfilled to the rest.

Consider the worked cases shown below.
{"compound": "O=C(CSc1nnc(-c2ccc3nc(-c4ccccc4)[nH]c3c2)o1)Nc1ccc(C(=O)/C=C/c2ccccc2)cc1", "assigned_class": "Fulfilled"}
{"compound": "Cn1ccnc1C(=O)/C=C/c1ccc(CNC(=O)c2ccc(F)cc2)cc1", "assigned_class": "Not fulfilled"}
{"compound": "CNC1CCc2c(sc(NC(=O)c3ccc(C(C)(C)C)cc3)c2C(N)=O)C1 (stereo not drawn)", "assigned_class": "Not fulfilled"}

[in] I'd appreciate it if you could say whether CC1(C)CC[C@]2(CN)CC[C@]3(C)C(=CC[C@@H]4[C@@]5(C)CCCNC(C)(C)[C@@H]5CC[C@]43C)[C@H]2C1 has growth at least equal to 70%.
[out] Fulfilled

###

test system: M14 melanoma; test: NCI-60 one-dose screen, 48 h (100 = growth as untreated, 0 = no growth, -100 = all killed); conditions: 10 µM unless noted
Compounds without any hit were thinned out: in the full panel of roughly 83,000, 20% have a hit. Active and inactive are the calls of the source. Rule for the calls: active = growth percent below 10; inactive = the rest.
measured_endpoint: growth

Please review the following examples before continuing.
{"compound": "CN1CCN(Cc2ccc(NC(=O)c3cncc(C#Cc4cnc5ccc(NCCCO)nn45)c3)cc2C(F)(F)F)CC1", "experimental_result": "-91% (active)"}
{"compound": "NC(N)=Nc1ccc(Oc2cccc(Nc3cccc(C(F)(F)F)c3)c2)cn1", "experimental_result": "5.01% (active)"}
{"compound": "N/C(=N\\C(N)=N\\c1nc2ccccc2s1)c1ccc2ccccc2c1", "experimental_result": "97.5% (inactive)"}

I need growth for every entry listed below, if you could help.
1. CC1(C)[C@@H](O)CC[C@]2(C)[C@H]3CC[C@@H]4[C@H]5[C@H](C(=O)/C=C\c6ccccn6)CC[C@]5(O)CC[C@@]4(C)[C@]3(C)CC[C@@H]12
2. Oc1[nH]c2ccccc2c1Nn1c(N=N/C=c2/ccc3c(c2)C=NN=3)n[nH]c1=S

[out]
1. 52.9% (inactive)
2. 106% (inactive)

Please report growth for every entry that follows.
1. CNC(=O)c1cc(Oc2ccc3nc(NC(=O)c4cccc(OC(F)(F)F)c4)sc3c2)ccn1
2. COc1ccc(-c2nc3ccc(-c4nnc(SCC(=O)Nc5ccc(C(=O)/C=C/c6ccc(Cl)cc6)cc5)o4)cc3[nH]2)cc1
3. O=C(Nc1ccc2c(ccn2Cc2ccccn2)c1)c1cnccn1

[out]
["93.9% (inactive)", "105% (inactive)", "106% (inactive)"]

###

system: CCRF-CEM leukemia; assay: NCI-60 one-dose screen, 48 h (100 = growth as untreated, 0 = no growth, -100 = all killed); conditions: 10 µM unless noted
About 83,000 compounds went through this panel and 20% of them were active in at least one assay; those are over-represented in the sample as a whole.
measured_endpoint: growth (%)
Numbers only, in %.

List growth for every entry below, keeping the order given.
1. Cc1ccc(NC(=O)c2ccc(CN3CCOCC3)c(C(F)(F)F)c2)cc1Oc1ccc(-c2[nH]nc3ncnc(N)c23)cc1
2. CCOC(=O)c1c(NC(=O)c2ccccc2C(F)(F)F)sc2c1CCC(=O)C2
3. CCN(CC)c1ccc2c(c1)Oc1nc(N)c(C#N)c(N)c1C2Sc1ccc(F)cc1 (centres undefined)
4. COc1cc2nc(Cl)nc(Nc3cccc(C4=Nc5c(N)nc(N)nc5NC(c5ccc(F)cc5)C4)c3)c2cc1OC (centres undefined)
5. NC(=O)c1c(NC(=O)c2ccccc2C(F)(F)F)sc2c1CCC(=O)C2
6. NS(=O)(=O)c1ccc(-n2cc(-c3cccc(NC(=O)c4ccc(N5CCOCC5)c(C(F)(F)F)c4)c3)nn2)cc1

[out]
47.8
10.3
-23
5.4
16.3
20.3

Okay, here is my list. What is growth for each of these?
1. NC(N)=Nc1ccc(Oc2cccc(NC(N)=Nc3ccc(Br)cc3)c2)cn1
2. CCNC(=O)Oc1ccc(/C(=C(/C)c2ccccc2)c2ccc(OCCN3CCCCCC3)cc2)cc1
3. COc1ccc(-n2c(/C=C3\C(=O)Nc4ccccc43)ccc2CO)cc1
4. O=C(NCCN1CCCC1)c1ccc(-c2nc3ccc4[nH]ncc4c3c3c2CCCC3)cc1
5. COc1ccc(N2CCN(C3=C(Cl)C(=O)C(C)=C(C)C3=O)CC2)cc1

[out]
[58.5, 7.24, 97.8, 9, 26.1]

# return growth for each item in the list
1. CN1CCC(n2cc(Nc3ncc4c(=O)n(-c5c(Cl)cccc5Cl)cc(Br)c4n3)cn2)CC1
2. N#Cc1c(NC(=O)c2cccc(C(F)(F)F)c2F)sc2c1CCC(=O)C2
3. C#CCC#CCN1CCC[C@H]1C(=O)NCC(=O)OC
4. COc1ccc(C2CC(c3ccc(Nc4nc(NCCO)nc(N5CCOCC5)n4)cc3)=Nc3c(N)nc(N)nc3N2)cc1 (centres undefined)
5. COc1c(N2CC3CCCNC3C2)c(F)cc2c(=O)c(C(=O)N/N=C/c3c[nH]c4ccccc34)cn(C3CC3)c12 (centres undefined)
6. NS(=O)(=O)c1ccc(Nc2nc(N/N=C/c3ccccn3)nc(Nc3ccccc3)n2)cc1
7. N#C/C(=C\c1ccc(-c2ccc(Cl)cc2Cl)o1)c1ccc(F)cc1

[out]
1. 8.75
2. 7.8
3. 109
4. 105
5. 71.2
6. 5.99
7. 93.7

Dear reader, for each entry below, please note its growth.
1. O=S(=O)(NCCNc1nccc(-n2cnc3ccccc32)n1)c1ccc(C(F)(F)F)cc1
2. CN(C)CCN(C)c1ccc2ncc(C#Cc3cncc(C(=O)Nc4ccc(CN5CCN(C)CC5)c(C(F)(F)F)c4)c3)n2n1

[out]
57.6
7.73

Answer for every listed entry: what is its growth? The entries follow.
1. COc1ccccc1-n1cc(C#N)c(N)c1C(=O)c1ccc(Cl)cc1
2. C#CCNC1CCC(c2csc(C#C)n2)=C1C (centres undefined)
3. COc1cc2nc(Cl)nc(Nc3cccc(C4=Nc5c(N)nc(N)nc5NC(c5ccc(Cl)cc5)C4)c3)c2cc1OC (centres undefined)

[out]
[76.3, -9.98, 3.94]

Need growth for each of these molecules.
1. c1cn2c(ccc3nc(-c4cn[nH]c4)c4c(c32)CCCC4)n1
2. O=C(NNc1nc2cc(F)ccc2n2c(CO)ccc12)c1cnccn1

[out]
1. 81.2
2. 7.36

Go through the items and report each one's growth.
1. CCc1ccc(SC2c3ccc(N(CC)CC)cc3Oc3nc(N)c(C#N)c(N)c32)cc1 (centres undefined)
2. FC(F)(F)c1cc(Nc2cccc(Oc3ccc(NC4=NCCN4)nc3)c2)ccc1Cl
3. CCN1CCN(C(=O)[C@]23CCC(C)(C)C[C@H]2C2=CC[C@@H]4[C@@]5(C)Cc6c([nH]c7ccccc67)C(C)(C)[C@@H]5CC[C@@]4(C)[C@]2(C)CC3)CC1

[out]
[-23.7, 14.6, 80]

Lab note: each molecule below needs its growth filled in.
1. O=C(Nc1nc2ccc([N+](=O)[O-])cc2s1)Nc1ccccc1Cl
2. COc1cc2oc(-c3cccc(NC(=O)c4cc(N)ccc4Cl)c3)cc(=O)c2c(OC)c1OC

[out]
1. 28.9
2. 64.9
